- SYSTEM: T1, huFLT3-T227-His (human, UniProt P36888 27-543);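 note: octet BLI with scFvs from periplasmic extracts captured by anti-V5 antibody on streptavidin sensors, FLT3 protein associating 2 min then dissociating 5 min, 1:1 Langmuir fit for off-rate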
- T1 construct: extracellular domain; also called FLT3 WT
- METHOD: BLI
MEASURED PARAMETER: binding result

INSERT INTO assay_data (binder, measured_parameter, result) VALUES
  ('Polypeptide No. 272 (scFv, V domains shown, scFv) VH: QVQLVQSGAEVKKPGSSVKVSCKASGYIFTNYYIQWVRQAPGQGLEWMGGIIPIFGTVGYAQKFQGRVTITADESTSTAYMELSSLRSEDTAVYYCARGRIGGGNDYWGQGTLVTVSS VL: DIQMTQSPSSLSASVGDRVTITCQASQYISNYLNWYQQKPGKAPKLLIYDASSLESGVPSRFSGSGSGTDFTLTISSLQPEDFATYYCQQSYSTPYTFGQGTKLEIKR', 'binding result', 'binds'),
  ('Polypeptide No. 251 (scFv, V domains shown, scFv) VH: QVQLVQSGAEVKKPGSSVKVSCKASGGTFSSDAINWVRQAPGQGLEWMGGIIPIVGTPTYAQKFQGRVTITADESTSTAYMELSSLRSEDTAVYYCAKGLAFGVFDGLDVWGQGTTVTVSS VL: EIVMTQSPATLSVSPGERATLSCRASQSVSSNYLAWYQQKPGQAPRLLIYDVSTRATGIPARFSGSGSGTEFTLTISSLQSEDFAVYYCQQYGSSTLTFGGGTKVEIKR', 'binding result', 'binds');

The reported measurements were obtained from patent US20240101668A1.
